- Tested on: NCI-H460
- Assay name: NCI tumour cell line growth inhibition, 48 h
Activity calls are given as the source filed them. Rule as the data show it: active = GI50 up to about 1.1 µM and inactive = higher.
Measured metric: GI50

>>> experimental_result("FC(F)(F)c1ccc(C2ON=C(c3ccccc3)N2C23CC4CC(CC(C4)C2)C3)cc1 (stereo not given)")
"> 10 µM (inactive)"
>>> experimental_result("COc1cc(-c2nc3ccccn3c2/N=C/c2cc(Br)cc(Br)c2O)ccc1O")
"35.1 µM (inactive)"

Input line: Observed GI50 on NCI-H460 for C1C2CC3CC1CC(c1nn4c(C56CC7CC(CC(C7)C5)C6)nnc4s1)(C2)C3 , please.
Output line: > 100 µM (inactive)

Input line: Observed GI50 on NCI-H460 for Cc1ccc(S(=O)(=O)c2c(N)n(CCN(C)C)c3nc4ccccc4nc23)cc1 , please.
Output line: > 100 µM (inactive)

====

- Test system: SR
- Assay name: NCI tumour cell line growth inhibition, 48 h
Activity calls are given as the source filed them. Cut-off read from the data, not from the text of the source: active = GI50 up to about 1.1 µM and inactive = higher.
molecules and their reported GI50

Examples from the recorded data:
>>> experimental_result("OC(Cc1cccc2ccccc12)CN1CCC(c2ccccc2)CC1 (stereo not given)")
"10.8 µM (inactive)"
>>> experimental_result("CC(=O)Nc1cc([As](=O)(O)O)ccc1O [ACETARSONE]")
"> 100 µM (inactive)"
>>> experimental_result("CC(C)CCCC(C)C1CCC2C3CC([N+](=O)[O-])=C4CC(O)CCC4(C)C3CCC12C (stereo not given)")
"15 µM (inactive)"
>>> experimental_result("OC1(c2ccccc2)CC2CCC(C1)N2CCc1ccccc1 (stereo not given)")
"> 100 µM (inactive)"
>>> experimental_result("OC(COc1ccc(Cl)cc1Cl)CN1CCCC1 (stereo not given)")
"64.6 µM (inactive)"

Here is another molecule to look at.
Input line: Observed GI50 on SR for COc1ccc2c3c([nH]c2c1[N+](=O)[O-])C(C)N(C(=O)/C=C/c1ccccc1)CC3 (stereo not given) , please.
Output line: 3.92 µM (inactive)

====

compounds and their reported GI50
- System: BT-549
- Assay name: NCI tumour cell line growth inhibition, 48 h
Active and inactive are the calls of the source. Cut-off read from the data, not from the text of the source: active = GI50 up to about 1.1 µM and inactive = higher.

Input line: Observed GI50 on BT-549 for O=C1Oc2ccccc2C(=O)/C1=C\Nc1nc(-c2ccc(O)c(O)c2)cs1 , please.
Output line: 5.77 µM (inactive)

Input line: Observed GI50 on BT-549 for CN1c2ccccc2C(=O)NC12CCN(CCCC(=O)c1ccc(F)cc1)CC2 , please.
Output line: 58.3 µM (inactive)

Input line: Observed GI50 on BT-549 for CC1=C[C@H](O)[C@@]2(C)[C@@H]([C@@H]1C)[C@H]1CC[C@@H]3[C@@]4(C)CC[C@H](O)C(C)(C)[C@@H]4CC[C@@]3(C)[C@]1(C)C[C@@H]2O , please.
Output line: 23.9 µM (inactive)

Input line: Observed GI50 on BT-549 for C1CC2=C(C1)[Se]C(=C1Sc3nsnc3S1)[Se]2 , please.
Output line: > 100 µM (inactive)

Input line: Observed GI50 on BT-549 for CO[P@]1(=O)O[C@@H](c2ccccc2)[C@H](O)[C@@]1(O)c1ccccc1 , please.
Output line: > 100 µM (inactive)

====

- Tested on: MDA-N
- Assay name: NCI tumour cell line growth inhibition, 48 h
Activity calls are given as the source filed them. Rule as the data show it: active = GI50 up to about 1.1 µM and inactive = higher.
Hi! Could you answer with just one of these? T = active, F = inactive

Solved cases below.
>>> class_assignment("OCCN(C1=NCCN1)/[N+](=C/c1ccccc1O)[CH-]c1ccccc1O")
"F"
>>> class_assignment("COc1cccc2c1CCc1sc(CN3CCN(C)CC3)nc1-2")
"F"
>>> class_assignment("CCCCn1c2c(n(CCCC)c1=S)-c1c(n(CCCC)c(=S)n1CCCC)S[Se][Se]S2")
"F"

Input line: Hi, do you know how C=C1C2CCC3C4(C)CCCC(C)(C(=O)O)C4CCC3(C2)C1OC(=O)/C(C)=C/C (stereo not given) came out in this test?
Output line: F

Input line: Hi, do you know how O=c1[nH]nc(-c2ccccc2)c2[nH]c3c4ccccc4ccc3c12 came out in this test?
Output line: T

====

- System: SNB-19
- Assay name: NCI tumour cell line growth inhibition, 48 h
Activity calls are given as the source filed them. No stated cut-off is given here; in the data, active = GI50 up to about 1.1 µM and inactive = higher.
Hi! Could you answer with just one of these? True for active, False for inactive

Solved cases below.
>>> class_assignment("OCC(O)C(OC1OC(CO)C(O)C(O)C1O)c1nn(-c2ccccc2)c2nc3cc(Cl)ccc3nc12 (configuration not stated)")
"False"
>>> class_assignment("CCN(CC)CCn1c2ccccc2c(=O)c2c(O)ccc(O)c21")
"False"
>>> class_assignment("O=C(OCc1ccccc1)C(Cc1ccccc1)N(Cc1ccccc1)Cc1ccccc1 (configuration not stated)")
"False"
>>> class_assignment("C[C@@H]1C(=O)CC2(O)[C@@]13C[C@@H](OC(=O)[C@@H]3O)[C@@H](C)[C@@]21COC1=O (some centres not stated)")
"False"
>>> class_assignment("O=C(O)/C(Cc1ccnc2ccccc12)=N\\O")
"False"
>>> class_assignment("CC(=O)OC1CC2(O)C(CCC3(C)C(c4ccc(=O)oc4)CCC32O)C2(C)C1=CC(O)C1OC12 (configuration not stated)")
"True"

Input line: Hi, do you know how O=c1c2sc3nc(NCCN4CCCCC4)ncc3c2ncn1-c1ccccc1 came out in this test?
Output line: False

====

- System: NCI-H23
- Assay name: NCI tumour cell line growth inhibition, 48 h
Activity calls are given as the source filed them. Rule as the data show it: active = GI50 up to about 1.1 µM and inactive = higher.
Hi! Could you answer with just one of these? True (active), False (inactive)

>>> class_assignment("CCc1cccc(C(C)(C)C)c1NC(=S)N/C=C(/C#N)C(N)=O")
"False"
>>> class_assignment("Oc1c(CNCCCN2CCCC2)cc(Cl)c2cccnc12")
"False"
>>> class_assignment("CCOC(=O)NC(C(=O)OCC)C(F)(F)F (stereo not given)")
"False"
>>> class_assignment("CN(C)c1nc(N(C)C)nc(N(C)C)n1")
"False"

Input line: Hi, do you know how COc1cc(Nc2cnc3cc(N)ccc3n2)cc(OC)c1OC came out in this test?
Output line: False

Input line: Hi, do you know how CCN1C(Cl)=NS(=O)(=O)c2ccccc21 came out in this test?
Output line: False

Input line: Hi, do you know how FC(F)(F)c1ccc(C2ON=C(c3ccccc3)N2C23CC4CC(CC(C4)C2)C3)cc1 (stereo not given) came out in this test?
Output line: False

Input line: Hi, do you know how O=S(=O)(c1cccc(N=C=S)c1)c1cccc(N=C=S)c1 came out in this test?
Output line: False

Input line: Hi, do you know how COc1cccc2c1C(=O)c1c(O)c3c(c(O)c1C2=O)C[C@@](O)(C(=O)CO)C[C@@H]3OC1CC(N2CCOCC2)C(O)C(C)O1 (stereo not given in full) came out in this test?
Output line: True

Input line: Hi, do you know how COc1ccc(OC)c(NC(=O)CCC/C(CC(=O)c2ccc(O)c(OC)c2)=N\NC(=O)C[N+](C)(C)C)c1 came out in this test?
Output line: False

====

- Test system: A498
- Assay name: NCI tumour cell line growth inhibition, 48 h
Activity calls are given as the source filed them. Cut-off read from the data, not from the text of the source: active = GI50 up to about 1.1 µM and inactive = higher.
Measured metric: GI50

>>> experimental_result("CC(C)[Si](OC1=C(C(=O)N(C)c2ccccc2Cl)CCCCC1)(C(C)C)C(C)C")
"> 100 µM (inactive)"
>>> experimental_result("CC1OC(OC2C(O)COC(OC3C(C)OC(OC4C(OC(=O)[C@]56CCC(C)(C)C[C@@H]5C5=CCC7[C@@]8(C)C[C@H](O)[C@H](OC9OC(CO)C(O)C(O)C9O)[C@@](C)(CO)[C@@H]8CC[C@@]7(C)[C@]5(C)CC6)OCC(O)C4O)C(O)C3OC3OCC(O)C(O)C3O)C2O)C(O)C(O)C1O (some centres undefined)")
"14.3 µM (inactive)"
>>> experimental_result("C=C1C(=O)O[C@H]2[C@H]1[C@@H](OC(=O)C=C(C)C)CC1=C[C@@H](C[C@@]3(C)O[C@@H]23)OC1=O")
"7.33 µM (inactive)"
>>> experimental_result("CN(C)NC1=C([N+](=O)[O-])C=NN(c2ccccc2)C1")
"20.9 µM (inactive)"
>>> experimental_result("Cc1cc(C(C)(C)C)c(OCCCN2CCOCC2)c(C(C)(C)C)c1")
"18.9 µM (inactive)"
>>> experimental_result("C[N+](C)=C/C=C(\\Cl)c1ccc2ccccc2c1")
"> 63 µM (inactive)"
>>> experimental_result("COC(=O)/C=C\\n1c(C)cc(=O)[nH]c1=O")
"> 100 µM (inactive)"
>>> experimental_result("O=c1oc(=O)c2oc3ccccc3oc1=2")
"> 100 µM (inactive)"

Here is another compound to look at.
Input line: Please look up its GI50: CCN1C(Cl)=NS(=O)(=O)c2ccccc21
Output line: 22.4 µM (inactive)
